Form field: refractive index (one value per entry).
# ASSAY: refractive index (Na D-line) (dimensionless)
# RECORDED CONDITIONS: 323.15 K; 101.33 kPa; Liquid; Standard Abbe refractometry
PROPERTY: refractive index

- CO: 1.3167
- CCCC[n+]1ccc(C)cc1.F[B-](F)(F)F [1-butyl-4-methylpyridinium tetrafluoroborate]: 1.44571
- CCCC[n+]1ccccc1.F[B-](F)(F)F [1-butylpyridinium tetrafluoroborate]: 1.43924
- CCCC[n+]1cccc(C)c1.F[B-](F)(F)F [1-butyl-3-methylpyridinium tetrafluoroborate]: 1.44425
- CCO: 1.34837

* * *

# ASSAY: refractive index (Na D-line) (dimensionless)
# RECORDED CONDITIONS: 293.15 K; 101.33 kPa; Liquid; Standard Abbe refractometry
PROPERTY: refractive index

* CO | 1.32843
* CCCC[n+]1ccccc1.F[B-](F)(F)F [1-butylpyridinium tetrafluoroborate] | 1.44719
* CCCC[n+]1ccc(C)cc1.F[B-](F)(F)F [1-butyl-4-methylpyridinium tetrafluoroborate] | 1.45386
* CCO | 1.36144
* CCCC[n+]1cccc(C)c1.F[B-](F)(F)F [1-butyl-3-methylpyridinium tetrafluoroborate] | 1.45248

Data provenance: the NIST ThermoML archive (doi:10.1016/j.tca.2013.08.016)
